I'd appreciate it if you could supply viability at 72 h, 10 µM values for the items below.
Experiment: Cell viability assay (Cell Counting Kit-8), ranges given for U87 and U251 together
Format: cell-based, Human
Conditions: human, 10 μM, U87 and U251 cells, read-out: Cell viability, % of control level

Would you mind telling me what viability at 72 h, 10 µM value was observed for CCOC(=O)C1CSC(Cc2ccc(OCc3ccc([N+](=O)[O-])cc3)cc2)N1 (stereo not drawn) ?
87 to 97%

Now the same for CCOc1ccc(Oc2ccc(OCc3cc(F)ccc3F)cc2)c(N)c1
93 to 106%

Similarly, Cl.Cl.Nc1cccc(CNC(=O)c2ccc(Oc3ccc(OCc4cccc(F)c4)cc3)nc2)c1 ?
87 to 100%

---

Test: Cell viability assay (Cell Counting Kit-8), ranges given for U87 and U251 together
Type: cell-based, Human
Settings: human, 100 μM, U87 and U251 cells, read-out: Cell viability, % of control level
readout.type: viability at 72 h, 100 µM

Recorded viability at 72 h, 100 µM of CC(C)COCC(CN(Cc1ccccc1)c1ccccc1)N1CCCC1 (stereo not shown) , please.
3 to 4%

---

Test: Cell viability assay (Cell Counting Kit-8), ranges given for U87 and U251 together
Type: cell-based, Human
Settings: human, 50 μM, U87 and U251 cells, read-out: Cell viability, % of control level
readout.type: viability at 72 h, 50 µM

What value of viability at 72 h, 50 µM has been reported for the following compound? CCOC(=O)C1CSC(Cc2ccc(OCc3ccc([N+](=O)[O-])cc3)cc2)N1 (stereo not shown)
74 to 104%

Check Cl.Cl.Nc1cccc(CNC(=O)c2ccc(Oc3ccc(OCc4cccc(F)c4)cc3)nc2)c1 too.
71 to 76%

Field entry: CCOc1ccc(Oc2ccc(OCc3cc(F)ccc3F)cc2)c(N)c1
72 to 92%

Moving on to the next compound: CC(C)COCC(CN(Cc1ccccc1)c1ccccc1)N1CCCC1 (stereo not shown)
6 to 7%

---

Tested on: reverse NCX
Assay: Whole-cell patch-clamp recording of reverse-mode NCX currents in U87 cells
Format: cell-based, Human
Settings: reverse NCX current measured at +50 mV, mean ± SEM, n = 4, read-out: IC50, blocking reverse NCX (currents)
pIC50: −log10 of the molar value.
We use 5 as the dividing line for pIC50: on or above the line is Condition met, below is Condition not met.

Quick check: does CCOC(=O)C1CSC(Cc2ccc(OCc3ccc([N+](=O)[O-])cc3)cc2)N1 (centres unmarked) have pIC50 greater than or equal to 5?
Condition met

Try the compound CS(=O)(=O)O.N=C(N)SCCc1ccc(OCc2ccc([N+](=O)[O-])cc2)cc1
Condition not met

Try this compound next: CCOc1ccc(Oc2ccc(OCc3cc(F)ccc3F)cc2)c(N)c1
Condition met

Also need CC(C)COCC(CN(Cc1ccccc1)c1ccccc1)N1CCCC1 (centres unmarked) , thanks.
Condition not met

Same lookup for Cl.Cl.Nc1cccc(CNC(=O)c2ccc(Oc3ccc(OCc4cccc(F)c4)cc3)nc2)c1 , please.
Condition met

---

Experiment: Cell viability assay (Cell Counting Kit-8), ranges given for U87 and U251 together
Assay type: cell-based, Human
Conditions: human, 20 μM, U87 and U251 cells, read-out: Cell viability, % of control level
Method: Cell viability was determined by using a Cell Counting Kit‐8 (Dojindo, Japan). Briefly, cells were harvested from flasks and plated in 96‐well cell culture plates at 5 × 10^3 per well and cultured overnight. Cells were treated with test reagents for 72 hr. Control cells were treated with cell culture medium and measured at the same time point as treatment groups. […] Absorbance at 450 nm was measured using an automatic microplate reader (Molecular Devices, San Jose, CA, USA).
Please go through the items and note down their viability at 72 h, 20 µM.

Reported viability at 72 h, 20 µM, molecule CCOC(=O)C1CSC(Cc2ccc(OCc3ccc([N+](=O)[O-])cc3)cc2)N1 (stereo not shown) : ____
86 to 99%

Also check CCOc1ccc(Oc2ccc(OCc3cc(F)ccc3F)cc2)c(N)c1
88 to 103%

Now the same for CC(C)COCC(CN(Cc1ccccc1)c1ccccc1)N1CCCC1 (stereo not shown)
30 to 40%

Try this molecule too: Cl.Cl.Nc1cccc(CNC(=O)c2ccc(Oc3ccc(OCc4cccc(F)c4)cc3)nc2)c1
84 to 96%
